# target_of_assay: HER-2 (Homo sapiens)
# Sequence (P04626 679-1255): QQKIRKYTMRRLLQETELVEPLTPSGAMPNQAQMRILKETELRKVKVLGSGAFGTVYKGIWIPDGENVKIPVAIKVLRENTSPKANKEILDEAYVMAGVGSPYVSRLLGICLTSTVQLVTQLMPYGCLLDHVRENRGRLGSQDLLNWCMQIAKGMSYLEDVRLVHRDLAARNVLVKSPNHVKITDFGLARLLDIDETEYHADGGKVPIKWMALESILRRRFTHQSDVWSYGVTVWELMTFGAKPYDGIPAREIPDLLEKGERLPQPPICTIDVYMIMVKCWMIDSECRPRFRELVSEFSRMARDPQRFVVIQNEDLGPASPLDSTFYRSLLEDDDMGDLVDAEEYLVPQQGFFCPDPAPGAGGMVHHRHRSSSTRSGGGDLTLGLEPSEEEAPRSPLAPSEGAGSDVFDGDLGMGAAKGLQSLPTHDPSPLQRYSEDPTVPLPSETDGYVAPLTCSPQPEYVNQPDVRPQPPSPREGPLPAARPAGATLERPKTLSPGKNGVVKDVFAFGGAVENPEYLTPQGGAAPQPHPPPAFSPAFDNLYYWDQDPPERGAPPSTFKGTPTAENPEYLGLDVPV
pIC50: −log10 of the molar value.
# maps each entry to its pIC50
readout_label: pIC50

1) N#Cc1cnc2sc(C(=O)Nc3ccc(CN4CCCCC4)cc3)c3c2c1N(c1ccc(Oc2ccccc2)cc1)C(=O)N3 [Cpd 49] ... 6.08
2) N#Cc1cnc2sc(C(=O)Nc3ccc(CCN4CCCCC4)cc3)c3c2c1N(c1c(Cl)ccc2c1OCO2)C(=O)N3 [Cpd 11] ... 5.54
3) CN1CCN(CCc2ccc(NC(=O)c3sc4ncc(C#N)c5c4c3NC(=O)N5c3c(Cl)ccc4c3OCO4)cc2)CC1 [Cpd 12] ... 5.26
4) COc1cc(NC(=O)c2sc3ncc(C#N)c4c3c2NC(=O)N4c2ccc(Oc3ccccc3)cc2)ccc1CN1CCOCC1 [Cpd 45] ... 7.08
5) CN1CCC(NC(=O)c2sc3ncc(C#N)c4c3c2NC(=O)N4c2c(Cl)ccc3c2OCO3)CC1 [Cpd 10] ... 5.15

----------
# target_of_assay: Aurora-A (Mus musculus, UniProt P97477)
# Construct: followed by the full length protein encoding the murine Aurora-A; polyhistidine (N); made in house; host or cells: sf9 insect cells
# Sequence (P97477 whole entry): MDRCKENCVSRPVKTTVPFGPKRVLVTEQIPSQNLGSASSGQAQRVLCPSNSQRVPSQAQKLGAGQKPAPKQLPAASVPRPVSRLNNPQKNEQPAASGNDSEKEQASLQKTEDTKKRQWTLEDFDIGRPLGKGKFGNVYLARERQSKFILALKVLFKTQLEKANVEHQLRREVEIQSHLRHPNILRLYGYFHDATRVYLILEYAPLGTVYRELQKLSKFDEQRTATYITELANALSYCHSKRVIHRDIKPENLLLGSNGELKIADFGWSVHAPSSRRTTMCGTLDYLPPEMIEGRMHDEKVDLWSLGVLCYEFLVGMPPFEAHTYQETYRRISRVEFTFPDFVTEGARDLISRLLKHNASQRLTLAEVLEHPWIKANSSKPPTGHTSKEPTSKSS
# test_description: Aurora-A Screening Assay
# Type: biochemical, murine
# test_context: test concentration of 1 μM; read-out: Aurora-A percent inhibition
In this section we review reported inhibition at 1 µM values for a set of molecules.
readout_label: inhibition at 1 µM

1. N#Cc1cnc2sc(C(=O)Nc3ccccn3)c3c2c1N(c1c(Cl)ccc2c1OCO2)C(=O)N3 [Cpd 37] ... 3%
2. N#Cc1cnc2sc(C(=O)Nc3ncccn3)c3c2c1N(c1c(Cl)ccc2c1OCO2)C(=O)N3 [Cpd 35] ... 16%
3. N#Cc1cnc2sc(C(=O)Nc3ccncc3)c3c2c1N(c1c(Cl)ccc2c1OCO2)C(=O)N3 [Cpd 40] ... 15%
4. COc1cc(NC(=O)c2sc3ncc(C#N)c4c3c2NC(=O)N4c2c(Cl)ccc3c2OCO3)ccc1OCCN1CCCCC1 [Cpd 31] ... 22%
5. N#Cc1cnc2sc(C(=O)N3CCC(O)CC3)c3c2c1N(c1c(Cl)ccc2c1OCO2)C(=O)N3 [Cpd 28] ... 25%
6. N#Cc1cnc2sc(C(=O)Nc3cc[nH]n3)c3c2c1N(c1c(Cl)ccc2c1OCO2)C(=O)N3 [Cpd 33] ... 29%
7. C[C@@H]1CN(Cc2ccc(NC(=O)c3sc4ncc(C#N)c5c4c3NC(=O)N5c3c(Cl)ccc4c3OCO4)cc2)C[C@H](C)O1 [Cpd 25] ... 18%
8. CC(C)(CO)NC(=O)c1sc2ncc(C#N)c3c2c1NC(=O)N3c1c(Cl)ccc2c1OCO2 [Cpd 38] ... 4%

----------
# target_of_assay: EGFR (Homo sapiens, UniProt P00533)
# Construct: The intracellular portion of EGFR started at nucleotide 2189 (corresponding to amino acid 667) and ended at the termination codon; made in house; host or cells: Sf9 insect cells (baculovirus)
# Sequence (P00533 669-1210 limits assumed): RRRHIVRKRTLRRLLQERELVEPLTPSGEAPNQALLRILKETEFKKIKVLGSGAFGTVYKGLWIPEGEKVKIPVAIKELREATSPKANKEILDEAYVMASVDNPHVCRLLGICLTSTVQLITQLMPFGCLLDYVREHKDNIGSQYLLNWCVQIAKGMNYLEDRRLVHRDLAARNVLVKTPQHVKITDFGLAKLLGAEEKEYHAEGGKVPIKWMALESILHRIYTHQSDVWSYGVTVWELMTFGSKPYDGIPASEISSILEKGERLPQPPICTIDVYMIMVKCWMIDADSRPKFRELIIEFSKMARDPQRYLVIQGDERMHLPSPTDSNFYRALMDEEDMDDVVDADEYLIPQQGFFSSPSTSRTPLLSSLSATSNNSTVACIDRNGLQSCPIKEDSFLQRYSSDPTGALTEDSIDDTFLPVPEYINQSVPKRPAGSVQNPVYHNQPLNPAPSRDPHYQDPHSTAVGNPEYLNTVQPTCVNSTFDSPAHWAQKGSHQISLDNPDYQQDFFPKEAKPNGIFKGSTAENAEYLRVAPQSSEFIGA
# test_description: EGFR Kinase Assay
# Type: biochemical
# test_context: test concentration of 2 μM; read-out: EGFR percent inhibition
readout_label: inhibition at 2 µM

1) N#Cc1cnc2sc(C(=O)Nc3ccncc3)c3c2c1N(c1c(Cl)ccc2c1OCO2)C(=O)N3 ... 30%
2) N#Cc1cnc2sc(C(=O)N3CCC(O)CC3)c3c2c1N(c1c(Cl)ccc2c1OCO2)C(=O)N3 ... 9%
3) N#Cc1cnc2sc(C(=O)Nc3ccc(CN4CCOCC4)cc3)c3c2c1N(c1c(Cl)ccc2c1OCO2)C(=O)N3 ... 36%
4) CC1COCC(C)N1Cc1ccc(NC(=O)c2sc3ncc(C#N)c4c3c2NC(=O)N4c2c(Cl)ccc3c2OCO3)cc1 (centres unmarked) ... 24%
5) CN(C(=O)c1sc2ncc(C#N)c3c2c1NC(=O)N3c1c(Cl)ccc2c1OCO2)c1ccc(CN2CCOCC2)cc1 ... 2%
6) N#Cc1cnc2sc(C(=O)Nc3ccccn3)c3c2c1N(c1c(Cl)ccc2c1OCO2)C(=O)N3 ... 10%
7) COc1cc(N2C(=O)Nc3c(C(=O)Nc4ccc(CCN5CCOCC5)cc4)sc4ncc(C#N)c2c34)c(Cl)cc1Cl ... 7%
8) CCOC(=O)c1sc2nc(-c3cc(F)ccc3Cl)c(C#N)c3c2c1NC(=O)N3c1ccncc1 ... 6%
9) N#Cc1cnc2sc(C(=O)Nc3ncccn3)c3c2c1N(c1c(Cl)ccc2c1OCO2)C(=O)N3 ... 42%
10) CCOC(=O)c1sc2nc(O)c(C#N)c3c2c1NC(=O)N3c1ccncc1 ... -9%
11) N#Cc1cnc2sc(C(=O)Nc3ccc(CN4CCC(F)(F)CC4)cc3)c3c2c1N(c1c(Cl)ccc2c1OCO2)C(=O)N3 ... 11%

----------
The listing below reports IC50 for compounds tested on c-Src kinase (Homo sapiens, UniProt P12931).
Sequence (P12931 whole entry): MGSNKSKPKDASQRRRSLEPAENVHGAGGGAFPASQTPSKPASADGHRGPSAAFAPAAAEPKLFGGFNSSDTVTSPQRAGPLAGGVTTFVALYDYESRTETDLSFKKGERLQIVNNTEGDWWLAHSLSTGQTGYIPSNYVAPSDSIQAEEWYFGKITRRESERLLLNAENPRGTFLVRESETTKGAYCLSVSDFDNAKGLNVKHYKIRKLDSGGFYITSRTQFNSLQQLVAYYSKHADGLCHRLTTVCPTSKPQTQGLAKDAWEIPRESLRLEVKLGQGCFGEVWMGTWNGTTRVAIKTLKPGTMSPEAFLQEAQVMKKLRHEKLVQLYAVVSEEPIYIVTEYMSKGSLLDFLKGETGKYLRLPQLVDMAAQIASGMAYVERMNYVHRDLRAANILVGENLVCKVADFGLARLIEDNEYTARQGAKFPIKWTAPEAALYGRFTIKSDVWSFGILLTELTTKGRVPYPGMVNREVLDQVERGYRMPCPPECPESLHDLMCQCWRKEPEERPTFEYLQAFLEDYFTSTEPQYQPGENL
readout_label: IC50 (nM)

1) N#Cc1cnc2sc(C(=O)Nc3ccc(CN4CCOCC4)cc3)c3c2c1N(c1c(Cl)ccc2c1OCO2)C(=O)N3 ... 57.4
2) COc1cc(N2C(=O)Nc3c(C(=O)Nc4ccc(CN5CCOCC5)cc4)sc4ncc(C#N)c2c34)c(Cl)cc1Cl ... 355
3) N#Cc1cnc2sc(C(=O)Nc3ccc(CCN4CCCCC4)cc3)c3c2c1N(c1c(Cl)ccc2c1OCO2)C(=O)N3 ... 71.2
4) COc1cc(N2C(=O)Nc3c(C(=O)Nc4ccc(CCN5CCOCC5)cc4)sc4ncc(C#N)c2c34)c(Cl)cc1Cl ... 368

----------
# target_of_assay: Aurora-A (Mus musculus)
# Construct: followed by the full length protein encoding the murine Aurora-A; polyhistidine (N); made in house; host or cells: sf9 insect cells
# test_description: Aurora-A Screening Assay
# Type: biochemical, murine
# test_context: test concentration of 1 μM; read-out: Aurora-A percent inhibition
readout_label: inhibition at 1 µM (%)

1) CC1COCC(C)N1Cc1ccc(NC(=O)c2sc3ncc(C#N)c4c3c2NC(=O)N4c2c(Cl)ccc3c2OCO3)cc1 (stereo not shown) [Cpd 24] ... 7
2) N#Cc1cnc2sc(C(=O)Nc3ccc(CN4CCC(O)CC4)cc3)c3c2c1N(c1c(Cl)ccc2c1OCO2)C(=O)N3 [Cpd 23] ... 16
3) CN(C(=O)c1sc2ncc(C#N)c3c2c1NC(=O)N3c1c(Cl)ccc2c1OCO2)c1ccc(CN2CCOCC2)cc1 [Cpd 29] ... 13
4) N#Cc1cnc2sc(C(=O)Nc3ccc(CN4CCC(F)CC4)cc3)c3c2c1N(c1c(Cl)ccc2c1OCO2)C(=O)N3 [Cpd 26] ... 23

----------
# target_of_assay: EGFR (Homo sapiens, UniProt P00533)
# Construct: The intracellular portion of EGFR started at nucleotide 2189 (corresponding to amino acid 667) and ended at the termination codon; made in house; host or cells: Sf9 insect cells (baculovirus)
# test_description: EGFR Kinase Assay
# Type: biochemical
# test_context: test concentration of 2 μM; read-out: EGFR percent inhibition
Please assign a class to every record based on measured inhibition at 2 µM, with ranges lower range = under 10%, middle range = from 10% up to 30%, upper range = 30% and over

1. Cc1nc2sc(C(=O)Nc3ccc(CN4CCOCC4)cc3)c3c2c(c1C#N)N(c1c(Cl)ccc2c1OCO2)C(=O)N3 [Cpd 9] ... middle range
2. N#Cc1cnc2sc(C(=O)Nc3cccnc3)c3c2c1N(c1c(Cl)ccc2c1OCO2)C(=O)N3 [Cpd 36] ... upper range
3. Cn1ccc(NC(=O)c2sc3ncc(C#N)c4c3c2NC(=O)N4c2c(Cl)ccc3c2OCO3)n1 [Cpd 39] ... middle range
4. COC1CCN(Cc2ccc(NC(=O)c3sc4ncc(C#N)c5c4c3NC(=O)N5c3ccc(Oc4ccccc4)cc3)cc2)CC1 [Cpd 51] ... upper range
5. N#Cc1cnc2sc(C(=O)Nc3ccc(CCN4CCOCC4)cc3)c3c2c1N(c1c(Cl)ccc2c1OCO2)C(=O)N3 [Cpd 13] ... middle range
6. CN(C)c1cc(NC(=O)c2sc3ncc(C#N)c4c3c2NC(=O)N4c2c(Cl)ccc3c2OCO3)ccc1CN1CCOCC1 [Cpd 27] ... upper range
7. N#Cc1cnc2sc(C(=O)N3CCCC(CO)C3)c3c2c1N(c1c(Cl)ccc2c1OCO2)C(=O)N3 (stereo not drawn) [Cpd 21] ... upper range
8. CN(C)C1CCN(C(=O)c2sc3ncc(C#N)c4c3c2NC(=O)N4c2c(Cl)ccc3c2OCO3)CC1 [Cpd 41] ... lower range
9. CCOC(=O)c1sc2nc(N3CCOCC3)c(C#N)c3c2c1NC(=O)N3c1c(Cl)ccc2c1OCO2 [Cpd 7] ... lower range
10. N#Cc1cnc2sc(C(=O)Nc3ccc(CCN4CCCCC4)cc3)c3c2c1N(c1ccc(Oc2ccccc2)cc1)C(=O)N3 [Cpd 48] ... upper range
11. COc1cc(N2C(=O)Nc3c(C(=O)Nc4ccc(CN5CCOCC5)cc4)sc4ncc(C#N)c2c34)c(Cl)cc1Cl [Cpd 5] ... lower range
12. N#Cc1cnc2sc(C(=O)Nc3ccc(NCCCN4CCOCC4)nc3)c3c2c1N(c1c(Cl)ccc2c1OCO2)C(=O)N3 [Cpd 30] ... middle range
13. C[C@@H]1CN(Cc2ccc(NC(=O)c3sc4ncc(C#N)c5c4c3NC(=O)N5c3c(Cl)ccc4c3OCO4)cc2)C[C@H](C)O1 [Cpd 25] ... middle range
14. N#Cc1c(N2CCOCC2)nc2sc(C(=O)Nc3ccc(CN4CCOCC4)cc3)c3c2c1N(c1c(Cl)ccc2c1OCO2)C(=O)N3 [Cpd 8] ... lower range
